Target: Cytochrome P450 1B1 (Homo sapiens)
Sequence (Q16678 whole entry): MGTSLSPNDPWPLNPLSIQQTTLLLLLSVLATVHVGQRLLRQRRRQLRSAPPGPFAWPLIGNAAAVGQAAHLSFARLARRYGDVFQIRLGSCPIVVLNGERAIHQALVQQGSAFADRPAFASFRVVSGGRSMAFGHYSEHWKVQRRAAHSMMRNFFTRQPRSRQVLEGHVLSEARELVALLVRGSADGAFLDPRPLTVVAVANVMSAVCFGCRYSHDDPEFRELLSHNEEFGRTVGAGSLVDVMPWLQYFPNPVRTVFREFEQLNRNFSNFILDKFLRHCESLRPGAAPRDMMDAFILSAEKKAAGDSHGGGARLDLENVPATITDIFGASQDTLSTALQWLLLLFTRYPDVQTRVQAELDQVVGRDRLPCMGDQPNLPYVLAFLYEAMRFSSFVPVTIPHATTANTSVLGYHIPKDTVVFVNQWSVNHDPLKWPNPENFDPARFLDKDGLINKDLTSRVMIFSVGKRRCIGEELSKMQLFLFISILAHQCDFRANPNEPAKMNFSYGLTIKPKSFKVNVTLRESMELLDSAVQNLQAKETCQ
Test: Inhibition of human recombinant CYP1B1 using 7-ethoxyresorufin as substrate incubated under dark condition for 30 mins in presence of NADPH by EROD fluorescence assay
Kindly supply the reported pIC50 values for the records listed here.
One number for each entry, as −log10 of the molar value.

N#Cc1cccc(-c2csc(C(=O)Nc3ccc(C(F)(F)F)cc3)n2)c1 | 8.53
N#Cc1ccc(-c2csc(C(=O)Nc3cc(Cl)cc(Cl)c3)n2)cn1 | 7.94
O=C(Nc1cc(Cl)cc(Cl)c1)c1nc(-c2ccccc2)cs1 | 8.47
O=C(Nc1ccc(OC(F)F)cc1)c1nc(-c2cccc(F)c2)cs1 | 10.70

Here is another compound to look at.
What pIC50 appears in the records for this compound with Cytochrome P450 1B1 (Homo sapiens)? O=C(Nc1cc(Cl)cc(Cl)c1)c1nc(-c2ccc(F)cc2)c(-c2ccccc2)s1
5.97

---

Exercise: state measured inhibition at 5 min, 10 µM for each of the compounds provided.
Molecular target: CYP3A4 (Homo sapiens)
Sequence (P08684 whole entry): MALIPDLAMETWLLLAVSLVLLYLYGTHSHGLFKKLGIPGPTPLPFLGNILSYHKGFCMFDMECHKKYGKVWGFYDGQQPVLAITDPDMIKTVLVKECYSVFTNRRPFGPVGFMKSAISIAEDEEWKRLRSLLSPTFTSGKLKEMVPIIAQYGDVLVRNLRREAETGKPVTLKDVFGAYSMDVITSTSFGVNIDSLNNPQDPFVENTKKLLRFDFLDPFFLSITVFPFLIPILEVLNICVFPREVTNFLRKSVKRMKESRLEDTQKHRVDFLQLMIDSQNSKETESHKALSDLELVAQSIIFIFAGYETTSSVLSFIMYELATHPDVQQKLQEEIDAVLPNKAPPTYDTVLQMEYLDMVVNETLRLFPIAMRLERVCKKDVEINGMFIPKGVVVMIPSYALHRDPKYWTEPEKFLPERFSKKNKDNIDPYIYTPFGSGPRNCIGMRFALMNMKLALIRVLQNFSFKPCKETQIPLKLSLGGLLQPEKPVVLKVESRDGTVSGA
Test: Inhibition of CYP3A4 in human liver microsome at 10 uM pre-incubated with compound for 5 mins followed NADPH addition and measured after 5 mins by LC-MS/MS analysis relative to control
Assay type: ADME
Conditions: liver microsomes, time 10 min
Numbers only, in %.

Some compounds with recorded inhibition at 5 min, 10 µM:
O=C(Nc1cc(Cl)cc(Cl)c1)c1nc(-c2cccc(Cl)c2)cs1 | 0.94
N#Cc1ccc(-c2csc(C(=O)Nc3ccc(C(F)(F)F)cc3)n2)cc1 | 77.1

# next compound below
Any idea what inhibition at 5 min, 10 µM came out for N#Cc1ccc(-c2csc(C(=O)Nc3cc(Cl)cc(Cl)c3)n2)cc1 on CYP3A4 (Homo sapiens)?
86.6

---

Target: Cytochrome P450 1A2 (Homo sapiens)
Sequence (P05177 whole entry): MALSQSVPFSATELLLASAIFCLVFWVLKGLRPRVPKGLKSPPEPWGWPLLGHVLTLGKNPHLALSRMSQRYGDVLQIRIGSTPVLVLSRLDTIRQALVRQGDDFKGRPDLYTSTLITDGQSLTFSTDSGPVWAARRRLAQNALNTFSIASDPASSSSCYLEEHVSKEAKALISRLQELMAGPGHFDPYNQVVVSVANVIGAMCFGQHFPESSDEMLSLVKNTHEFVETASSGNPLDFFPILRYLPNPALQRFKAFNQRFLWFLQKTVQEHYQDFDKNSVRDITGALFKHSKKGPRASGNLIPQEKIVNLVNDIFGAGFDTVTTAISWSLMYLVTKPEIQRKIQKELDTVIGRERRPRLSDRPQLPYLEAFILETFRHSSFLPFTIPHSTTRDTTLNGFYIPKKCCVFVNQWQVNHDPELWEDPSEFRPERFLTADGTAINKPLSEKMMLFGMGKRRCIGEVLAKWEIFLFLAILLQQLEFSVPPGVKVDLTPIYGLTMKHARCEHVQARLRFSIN
Assay: Inhibition of human recombinant CYP1A2 using 7-ethoxyresorufin as substrate incubated under dark condition for 45 mins in presence of NADPH by EROD fluorescence assay
pIC50: −log10 of the molar value.
Kind request: treat 6 as inclusive, so pIC50 at 6 or higher is Yes, anything lower is No.

Solved entries (count: 5):
O=C(Nc1ccccc1)c1nc(-c2ccccc2)cs1 | Yes
Cc1ccc(-c2csc(C(=O)Nc3cc(Cl)cc(Cl)c3)n2)cc1 | No
COc1ccc(OC)c(NC(=O)c2nc(-c3ccccc3)cs2)c1 | Yes
N#Cc1ccc(-c2csc(C(=O)Nc3cc(Cl)cc(Cl)c3)n2)cn1 | No
NC(=O)c1cccc(-c2csc(C(=O)Nc3ccc(C(F)(F)F)cc3)n2)c1 | No

Hi team, for NC(=O)c1cccc(-c2csc(C(=O)Nc3ccc(OC(F)F)cc3)n2)c1 , is the recorded pIC50 at or above 6?
No

Check the entry O=C(Nc1ccc(C(F)(F)F)cc1)c1nc(-c2ccccc2)cs1 : does pIC50 equal or exceed 6?
Yes

Hi, just wondering whether N#Cc1ccc(-c2csc(C(=O)Nc3ccc(C(F)(F)F)cc3)n2)cc1 shows pIC50 of 6 or higher.
No

Please tell me: is the compound N#Cc1ccc(NC(=O)c2nc(-c3ccccc3)cs2)cc1 at or over 6 in terms of pIC50?
Yes

Hi team, for O=C(Nc1ccc(C(F)(F)F)cc1)c1nc(-c2ccc(Cl)cc2)cs1 , is the recorded pIC50 at or above 6?
Yes
